B1: VH:VL chains; a variant is named by its letters at X, in order (parent)
chain 1: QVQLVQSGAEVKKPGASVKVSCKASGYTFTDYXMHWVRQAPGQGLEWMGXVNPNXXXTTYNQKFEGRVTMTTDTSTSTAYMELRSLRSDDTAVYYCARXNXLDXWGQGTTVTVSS
chain 2: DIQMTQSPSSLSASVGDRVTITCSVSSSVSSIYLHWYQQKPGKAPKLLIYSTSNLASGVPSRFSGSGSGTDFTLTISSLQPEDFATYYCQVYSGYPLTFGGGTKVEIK

# Variants of: B1
# ASSAY_NAME: yeast display scFab, FACS + sequencing
# EXPERIMENTAL_SETUP: with MET
This is one part of the list. The hit rate among all sequences tested is not known here.
MEASURED_ATTRIBUTE: antigen binding call

Here is how some variants turned out for antigen binding call.
VARIANT_CODE: YRRRGFGD
TEST_RESULT: no binding

VARIANT_CODE: DKTKSDWV
TEST_RESULT: no binding

VARIANT_CODE: SKTKSSSA
TEST_RESULT: no binding

VARIANT_CODE: VRGGSDGY
TEST_RESULT: binds

VARIANT_CODE: DKEGGSSA
TEST_RESULT: no binding

Entry SKKRGAAA , antigen binding call reported as binds

The recorded antigen binding call for entry VEARGDGA equals no binding

// recorded antigen binding call for DTGTGALV : no binding
